Parameter: change in vivo at 0.01 % in diet. Scope: all listed entries.
- System: KKA^y mice
- EXPERIMENTAL_DETAILS: Total cholesterol lowering action and plasma anti-arteriosclerosis index-enhancing action in mice
- Assay type: in vivo
- APPLIED_CONDITIONS: Mus musculus, po, 96 h, percent increase of index [(HDL cholesterol/total cholesterol)×100] vs non-treatment group (100%), 0.01% in powdery diet, four days
- Text: Total Cholesterol Lowering Action and Plasma Anti-Arteriosclerosis Index-Enhancing Action in Mice […]
Output spec: scalar in %, unitless text.

Example entries and their recorded answers appear below.
COMPOUND | REPORTED_VALUE
Cc1oc(-c2ccccc2)nc1COc1ccc(Cc2nc(CCC(=O)O)c(-c3ccccc3)o2)cc1 [Example 6] | 17
Cc1oc(-c2ccccc2)nc1COc1ccc(COc2nn(-c3ccccc3)cc2CC(=O)O)cc1 [Example 50] | 12
Cc1oc(-c2ccccc2)nc1COc1ccc(COc2nn(Cc3ccccc3)cc2CC(=O)O)cn1 [Example 40] | 22
Cc1oc(-c2ccccc2)nc1COc1ccc(COc2nn(C)cc2CC(=O)O)cn1 [Example 26] | 14
Cc1oc(-c2ccccc2)nc1COc1ccc(Cc2nc(CCC(=O)O)c(-c3ccccc3)s2)cc1 [Example 8] | 11

Provide the documented change in vivo at 0.01 % in diet with KKA^y mice as the system for Cc1oc(-c2ccccc2)nc1COc1ccc(COc2nn(-c3ccccc3)cc2CC(=O)O)cn1 [Example 54] 14

Provide the documented change in vivo at 0.01 % in diet with KKA^y mice as the system for Cc1oc(-c2ccccc2)nc1COc1ccc(Sc2nc(-c3ccccc3)c(CCC(=O)O)s2)cc1 [Example 12] 15

Provide the documented change in vivo at 0.01 % in diet with KKA^y mice as the system for COc1cc(COc2nn(-c3ccccc3)cc2CC(=O)O)ccc1OCc1nc(-c2ccccc2)oc1C [Example 52] 16

Provide the documented change in vivo at 0.01 % in diet with KKA^y mice as the system for Cc1oc(-c2ccco2)nc1COc1ccc(COc2nn(C)cc2CC(=O)O)cn1 [Example 38] 12

---

Parameter: melting point. Scope: all listed entries.

Example entries and their recorded answers appear below.
STRUCTURE_AS_SMILES | melting point
Cc1oc(-c2ccccc2)nc1COc1ccc(COc2nn(Cc3ccccc3)cc2CC(=O)O)cc1 | 91 to 92 °C
Cc1oc(-c2ccccc2)nc1COc1ccc(Cc2nc(-c3ccccc3)c(CCC(=O)O)o2)cc1 | 142 to 143 °C

What value of melting point has been reported for the following compound? COc1cc(COc2nn(-c3ccccc3)cc2CC(=O)O)ccc1OCc1nc(-c2ccco2)oc1C 179 to 180 °C

What value of melting point has been reported for the following compound? Cc1oc(-c2ccccc2)nc1COc1ccc(Cc2nc(-c3ccccc3)c(CCC(=O)O)[nH]2)cc1 193 to 196 °C

---

Parameter: melting point. Scope: all listed entries.

STRUCTURE_AS_SMILES | READOUT | REPORTED_VALUE
Cc1oc(-c2ccccc2)nc1COc1ccc(Cc2nc(CCC(=O)O)c(-c3ccccc3)o2)cc1 | melting point | 136 to 137 °C

What value of melting point has been reported for the following compound? Cc1oc(-c2ccccc2)nc1CCOc1ccc(COc2nn(C)cc2CC(=O)O)cc1 148 to 149 °C

What value of melting point has been reported for the following compound? COc1cc(COc2nn(-c3ccccc3)cc2CC(=O)O)ccc1OCc1nc(-c2ccccc2)oc1C 147 to 148 °C

What value of melting point has been reported for the following compound? Cc1oc(-c2ccccc2)nc1COc1ccc(COc2nn(-c3ccccc3)cc2CC(=O)O)cn1 164 to 165 °C

What value of melting point has been reported for the following compound? Cn1cc(CC(=O)O)c(OCc2cc(OCc3ccc4ccccc4n3)no2)n1 124 to 125 °C

What value of melting point has been reported for the following compound? Cc1oc(-c2ccccc2)nc1COc1ccc(COc2nn(C)cc2CC(=O)O)cc1 133 to 134 °C

What value of melting point has been reported for the following compound? Cc1oc(-c2ccccc2)nc1COc1ccc(Sc2nc(-c3ccccc3)c(CCC(=O)O)s2)cc1 121 to 122 °C

What value of melting point has been reported for the following compound? Cc1oc(-c2ccccc2)nc1COc1ccc(Sc2nc(CC(=O)O)cs2)cc1 180 to 181 °C

What value of melting point has been reported for the following compound? Cc1oc(-c2ccccc2)nc1COc1ccc(COc2nn(Cc3ccccc3)cc2CCC(=O)O)cn1 130 to 131 °C

What value of melting point has been reported for the following compound? Cc1sc(-c2ccccc2)nc1COc1ccc(COc2nn(C)cc2CC(=O)O)cn1 140 to 141 °C

---

- ASSAYED_SYSTEM: PPARγ-RXRα heterodimer (Homo sapiens)
- Sequence (P37231 1-477 isoform P37231-2): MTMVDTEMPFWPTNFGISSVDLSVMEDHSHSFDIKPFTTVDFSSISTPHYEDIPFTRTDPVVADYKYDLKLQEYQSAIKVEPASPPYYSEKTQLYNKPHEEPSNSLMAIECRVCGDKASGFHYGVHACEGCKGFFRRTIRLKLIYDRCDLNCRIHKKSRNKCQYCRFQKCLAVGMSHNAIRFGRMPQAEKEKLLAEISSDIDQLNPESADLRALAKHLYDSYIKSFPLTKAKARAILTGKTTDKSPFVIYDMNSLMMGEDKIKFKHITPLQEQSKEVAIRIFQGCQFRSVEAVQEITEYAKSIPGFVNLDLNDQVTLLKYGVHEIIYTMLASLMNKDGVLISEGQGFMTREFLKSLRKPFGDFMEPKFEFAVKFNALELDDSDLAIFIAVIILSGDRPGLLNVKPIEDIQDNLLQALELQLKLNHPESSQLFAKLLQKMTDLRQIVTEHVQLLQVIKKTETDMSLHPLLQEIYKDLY
- Sequence (P19793 1-462 partner): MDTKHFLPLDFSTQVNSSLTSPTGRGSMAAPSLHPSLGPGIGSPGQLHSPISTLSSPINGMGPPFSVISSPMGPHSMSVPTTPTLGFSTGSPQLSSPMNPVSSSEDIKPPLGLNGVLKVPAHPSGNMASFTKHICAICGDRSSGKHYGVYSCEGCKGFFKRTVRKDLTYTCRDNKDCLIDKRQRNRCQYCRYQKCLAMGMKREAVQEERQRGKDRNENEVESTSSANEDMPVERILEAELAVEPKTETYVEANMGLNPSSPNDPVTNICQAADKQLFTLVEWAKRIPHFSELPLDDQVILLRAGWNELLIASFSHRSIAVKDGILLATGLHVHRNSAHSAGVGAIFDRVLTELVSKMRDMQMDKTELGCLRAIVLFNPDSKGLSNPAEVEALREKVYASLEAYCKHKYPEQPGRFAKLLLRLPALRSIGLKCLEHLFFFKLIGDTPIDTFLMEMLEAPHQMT
- EXPERIMENTAL_DETAILS: PPARγ-RXRα heterodimer ligand activity (luciferase reporter, PPARγ:RXRα:4ERPP/CHO-K1 cells)
- APPLIED_CONDITIONS: concentration for 50% of maximum fold induction of luciferase, 48 hrs
pEC50: −log10 of the molar value.
The label depends only on pEC50: Yes if it is at least 8, No if it is smaller.

Entry Cc1oc(-c2ccccc2)nc1COc1ccc(Cc2nc(CCC(=O)O)c(-c3ccccc3)o2)cc1 : is its pEC50 no less than 8? Yes

Entry Cc1oc(-c2ccccc2)nc1COc1ccc(COc2nn(-c3ccccc3)cc2CC(=O)O)cn1 : is its pEC50 no less than 8? Yes

Entry Cc1oc(-c2ccccc2)nc1COc1ccc(COc2nn(C)cc2CC(=O)O)cn1 : is its pEC50 no less than 8? No

Entry Cc1oc(-c2ccccc2)nc1COc1ccc(COc2nn(-c3ccccc3)cc2CC(=O)O)cc1 : is its pEC50 no less than 8? Yes

Entry Cc1oc(-c2ccccc2)nc1COc1ccc(Cc2nc(-c3ccccc3)c(CCC(=O)O)o2)cc1 : is its pEC50 no less than 8? Yes

Entry COc1cc(COc2nn(-c3ccccc3)cc2CC(=O)O)ccc1OCc1nc(-c2ccccc2)oc1C : is its pEC50 no less than 8? Yes

---

READOUT: melting point

Example entries and their recorded answers appear below.
COMPOUND | READOUT | REPORTED_VALUE
COc1cc(COc2cc(CCC(=O)O)n(-c3ccccc3)n2)ccc1OCc1nc(-c2ccccc2)oc1C [Example 79] | melting point | 157 to 158 °C
COc1cc(COc2nn(C)cc2CC(=O)O)ccc1OCc1nc(-c2ccccc2)oc1C [Example 42] | melting point | 153 to 154 °C
Cc1oc(-c2ccccc2)nc1COc1ccc(CCc2oc(-c3ccccc3)nc2CCC(=O)O)cc1 [Example 65] | melting point | 110 to 111 °C

What value of melting point has been reported for the following compound? COc1cc(COc2nn(-c3ccccc3)cc2CCC(=O)O)ccc1OCc1nc(-c2ccco2)oc1C [Example 56] 161 to 162 °C
